Quick list: protein stability index per entry.
B1: EIF5 (parent)
chain: KQTIGNSCKACGYRGMLDTHHKLC

- Variants of: B1
- Experimental Details: protein stability index of a GFP-peptide fusion (GPS, HEK-293T) (PSI 1-6); higher = more stable;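 also: lentivirally expressed fusions sorted by FACS into six bins by GFP to DsRed ratio, PSI derived from sequencing read proportions per bin multiplied by bin number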
- Stated Conditions: c terminus: a fixed tail appended
// no unit, no text: just the number

# Sequence Variant, protein stability index
measured = [
    ("Y13R", 3.24),
    ("M16L", 3.51),
    ("L17F", 2.55),
    ("L23K", 3.36),
]

For the next question, use this variant.
QUERY: Return reported protein stability index; argument: C24Y
RESULT: 1.7
